experimental_system: myeloperoxidase (Homo sapiens, UniProt P05164)
experiment_summary: MPO Peroxidation Assay (Amplex Red Assay)
Format: biochemical
cond: potency range class, read-out: Amplex Red Assay IC50 value
pIC50: −log10 of the molar value.
observable: pIC50

Example entries begin here.
CC(c1ccccc1)c1cc(N)nc2[nH]nnc12 (racemic) :: 7.00 to 9.00
Nc1cc([C@H](CCN2CCC(O)(Cc3ccccc3)CC2)c2ccccc2)c2nn[nH]c2n1 :: 5.00 to 6.00
Nc1cc(C(CCC(O)Cc2ccccc2)c2ccccc2)c2nn[nH]c2n1 (centres unmarked) :: 6.00 to 7.00
CN(C)C(=O)c1cccc(-c2cccc3[nH]c(C[C@H](c4ccccc4)c4cc(N)nc5[nH]nnc45)nc23)c1 :: 6.00 to 7.00
Nc1cc(C(CCN[C@H]2CC[C@H](c3ccccc3)CC2)c2ccccc2F)c2nn[nH]c2n1 (some centres unmarked) :: 6.00 to 7.00

QUERY: Need pIC50, item NC(=O)c1ccc(C2CCC(NCCC(c3ccccc3)c3cc(N)nc4[nH]nnc34)CC2)cc1 (centres unmarked) [Example 117]
RESULT: 6.00 to 7.00

QUERY: Name the reported pIC50 value associated with the compound Nc1cc(C(CCNCc2cccc3ccccc23)c2ccccc2)c2nn[nH]c2n1 (centres unmarked)
RESULT: 6.00 to 7.00

QUERY: Data request, read-out pIC50, for Nc1cc(C(CCCN2CCC(Cc3ccccc3)CC2)c2ccccc2)c2nn[nH]c2n1 (centres unmarked)
RESULT: 6.00 to 7.00

* * *

We begin with a simple list: items and their reported pIC50.
experimental_system: myeloperoxidase (Homo sapiens, UniProt P05164)
Sequence (P05164 49-745): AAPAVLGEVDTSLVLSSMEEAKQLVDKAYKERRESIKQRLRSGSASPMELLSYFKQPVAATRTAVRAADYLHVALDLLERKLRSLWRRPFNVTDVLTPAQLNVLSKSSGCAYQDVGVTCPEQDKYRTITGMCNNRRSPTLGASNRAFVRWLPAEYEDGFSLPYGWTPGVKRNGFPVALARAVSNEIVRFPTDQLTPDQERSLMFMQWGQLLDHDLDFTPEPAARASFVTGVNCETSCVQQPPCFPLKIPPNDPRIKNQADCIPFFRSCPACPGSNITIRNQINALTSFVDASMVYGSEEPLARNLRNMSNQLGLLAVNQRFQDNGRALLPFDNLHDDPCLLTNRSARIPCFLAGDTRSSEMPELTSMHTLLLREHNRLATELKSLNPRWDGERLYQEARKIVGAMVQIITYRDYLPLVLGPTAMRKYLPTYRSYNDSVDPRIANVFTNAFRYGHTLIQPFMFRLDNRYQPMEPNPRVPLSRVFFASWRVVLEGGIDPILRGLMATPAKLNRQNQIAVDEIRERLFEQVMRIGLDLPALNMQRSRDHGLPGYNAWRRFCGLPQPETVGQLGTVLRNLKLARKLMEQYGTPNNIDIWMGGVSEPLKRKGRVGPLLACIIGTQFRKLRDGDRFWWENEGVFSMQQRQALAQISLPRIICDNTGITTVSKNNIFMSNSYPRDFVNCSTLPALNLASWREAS
experiment_summary: MPO Chlorination Assay (APF Assay)
Format: biochemical
cond: potency range class, read-out: APF Assay IC50 value
pIC50: −log10 of the molar value.

Below, each entry is followed by its recorded pIC50 result.
CC1(NCCC(c2ccccc2)c2cc(N)nc3[nH]nnc23)CCC(c2ccccc2)CC1 (mixture of isomers) :: 6.00 to 7.00
Nc1cc([C@H](CCN2CCC(O)(Cc3ccccc3)CC2)c2ccccc2)c2nn[nH]c2n1 :: 7.00 to 9.00
NC(=O)c1cccc(CNCCC(c2ccccc2)c2cc(N)nc3[nH]nnc23)c1 (stereo not shown) :: 6.00 to 7.00
CC(C)(NCCC(c1ccccc1)c1cc(N)nc2[nH]nnc12)c1ccccc1 (stereo not shown) :: 6.00 to 7.00
Nc1cc(C(CCN[C@H]2CC[C@@H](c3ccc(=O)[nH]c3)CC2)c2ccccc2)c2nn[nH]c2n1 (stereo partly shown) :: 6.00 to 7.00

QUERY: Look up pIC50 for this molecule: Nc1cc([C@H](Cc2nc3c(-c4cccc(C5CC5)c4)cccc3[nH]2)c2ccccc2)c2nn[nH]c2n1
RESULT: 7.00 to 9.00
